Just for reference, the supplement of paper PMC10567573 is where these values come from.

B1: IFRG15 (parent)
chain: INRADYCPECYPDNPANRSLVLPW

# Variants of: B1
# assaySummary: protein stability index of a GFP-peptide fusion (GPS, HEK-293T) (PSI 1-6); higher = more stable;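 further: lentivirally expressed fusions sorted by FACS into six bins by GFP to DsRed ratio, PSI derived from sequencing read proportions per bin multiplied by bin number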
# conditionLabel: c terminus: a fixed tail appended
Answer Condition not met if protein stability index is under 2, and Condition met if it is 2 or more.

**Q:** # check: protein stability index of INRADYCPECYPDNPANRSLNLPW [V21N] is greater than or equal to 2
**A:** Condition met

**Q:** # check: protein stability index of INRADYCPECYPDNAANRSLVLPW [P15A] is greater than or equal to 2
**A:** Condition met

**Q:** # check: protein stability index of INRALYCPECYPDNPANRSLVLPW [D5L] is greater than or equal to 2
**A:** Condition not met

**Q:** # check: protein stability index of INRAQYCPECYPDNPANRSLVLPW [D5Q] is greater than or equal to 2
**A:** Condition not met

**Q:** # check: protein stability index of INRADYCPECYPDNPANRSKVLPW [L20K] is greater than or equal to 2
**A:** Condition met

**Q:** # check: protein stability index of INRADYCPECDPDNPANRSLVLPW [Y11D] is greater than or equal to 2
**A:** Condition met

**Q:** # check: protein stability index of INRADYCPECYPDNPANRSLVLPK [W24K] is greater than or equal to 2
**A:** Condition met

**Q:** # check: protein stability index of INRADPCPECYPDNPANRSLVLPW [Y6P] is greater than or equal to 2
**A:** Condition met

**Q:** # check: protein stability index of INRADYCPECYPDNFANRSLVLPW [P15F] is greater than or equal to 2
**A:** Condition not met

**Q:** # check: protein stability index of INRADYCPECNPDNPANRSLVLPW [Y11N] is greater than or equal to 2
**A:** Condition met

**Q:** # check: protein stability index of INRADYCPECYPDNPPNRSLVLPW [A16P] is greater than or equal to 2
**A:** Condition met

**Q:** # check: protein stability index of INRADYCPVCYPDNPANRSLVLPW [E9V] is greater than or equal to 2
**A:** Condition met

**Q:** # check: protein stability index of INRADYCMECYPDNPANRSLVLPW [P8M] is greater than or equal to 2
**A:** Condition not met

**Q:** # check: protein stability index of INRTDYCPECYPDNPANRSLVLPW [A4T] is greater than or equal to 2
**A:** Condition met

**Q:** # check: protein stability index of VNRADYCPECYPDNPANRSLVLPW [I1V] is greater than or equal to 2
**A:** Condition not met

**Q:** # check: protein stability index of INRADYCPECYPDNPANRSLVLNW [P23N] is greater than or equal to 2
**A:** Condition not met

**Q:** # check: protein stability index of INRADYCPECYPDNPANRSFVLPW [L20F] is greater than or equal to 2
**A:** Condition not met

**Q:** # check: protein stability index of INRADYCPECYPDNKANRSLVLPW [P15K] is greater than or equal to 2
**A:** Condition not met

**Q:** # check: protein stability index of INRAAYCPECYPDNPANRSLVLPW [D5A] is greater than or equal to 2
**A:** Condition not met
